The reported measurements were obtained from patent US4406902A.

experimental_target: renal dipeptidase (E.C.3.4.13.11) (Sus scrofa, UniProt P22412)
Construct: solubilized preparation of dipeptidase isolated from hog kidneys
Sequence (P22412 17-409): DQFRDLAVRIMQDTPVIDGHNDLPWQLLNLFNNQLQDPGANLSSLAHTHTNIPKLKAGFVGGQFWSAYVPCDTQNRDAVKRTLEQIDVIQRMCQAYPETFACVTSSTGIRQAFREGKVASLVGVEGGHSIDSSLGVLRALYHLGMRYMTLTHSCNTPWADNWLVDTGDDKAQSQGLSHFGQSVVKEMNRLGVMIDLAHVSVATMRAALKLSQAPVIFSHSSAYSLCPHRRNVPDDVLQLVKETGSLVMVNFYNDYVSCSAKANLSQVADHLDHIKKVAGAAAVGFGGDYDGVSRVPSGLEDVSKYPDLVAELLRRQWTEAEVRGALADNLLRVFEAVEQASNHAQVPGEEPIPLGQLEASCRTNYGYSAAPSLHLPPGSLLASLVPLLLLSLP
procedure_text: in vitro screen: inhibition of hydrolysis of glycyldehydrophenylalanine (GDP) by solubilized dipeptidase from hog kidneys
condition_set: GDP 0.05 mM; pH 7.1; 37° C.; hog kidney dipeptidase; read-out: inhibitor binding constant, Ki (ki)
The entries below come with measured pKi values attached.
# reply with the number alone; pKi is -log10 of concentration in mol/L

Below, 2 compounds whose answers are already recorded.
>  <compound>
CC1(C)CC1C(=O)N/C(=C\CCCCSc1ncccc1C(=O)O)C(=O)O (racemic)

>  <experimental_target>
renal dipeptidase (E.C.3.4.13.11) (Sus scrofa, UniProt P22412)

>  <pKi>
7.40

$$$$
>  <compound>
CC1(C)CC1C(=O)N/C(=C\CCCCSc1ncccc1O)C(=O)O (single isomer, unassigned; (+))

>  <experimental_target>
renal dipeptidase (E.C.3.4.13.11) (Sus scrofa, UniProt P22412)

>  <pKi>
7.70

$$$$

Next compound, please.
// query pKi value for entry CC1(C)CC1C(=O)N/C(=C\CCCCSc1ccc(C(=O)O)cn1)C(=O)O (racemic)
6.60
